# System: Candida albicans
# run description: Minimum inhibitory concentration against Candida albicans IFO 1388
# Type: functional
measurement kind: MIC (µg/mL)

C/C=C(/c1ccccc1OCc1ccc(Cl)cc1)n1ccnc1: 12.5
C=C(c1cc(Cl)ccc1OCc1ccccc1)n1ccnc1: 12.5
C=C(c1ccccc1OCc1cccc(Cl)c1)n1ccnc1: 12.5
C/C=C(\c1ccccc1OCc1ccc(Cl)cc1)n1ccnc1: 12.5
C=C(c1ccccc1OCc1ccc(Cl)cc1)n1ccnc1: 12.5
Clc1ccccc1C(c1ccccc1)(c1ccccc1)n1ccnc1: 12.5
C=C(c1cc(Cl)ccc1OCc1ccc(Cl)cc1)n1ccnc1: 12.5
CC(C)=C(c1ccccc1OCc1ccc(Cl)cc1)n1ccnc1: 12.5
C=C(c1ccccc1OCc1ccsc1Cl)n1ccnc1: 12.5
CC=C(c1ccccc1OCc1ccc(Cl)c(Cl)c1)n1ccnc1: 12.5
